system: ATP; test: switch fluorescence ratio, 500 uM ATP over buffer (Cy3 cluster intensity, sum of 5 cycles each) (fold (ratio)); higher = stronger signal-on switching upon ATP binding; sequences stand for … in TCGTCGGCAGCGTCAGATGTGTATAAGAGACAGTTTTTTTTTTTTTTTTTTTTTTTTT…TC; settings: aptamer strand: ATP DNA aptamer (quencher-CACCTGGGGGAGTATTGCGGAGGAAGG + anchor), 100 nM annealed; ATP concentration: 500 uM;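 note: ATP exposure 15 min at 22 °C before imaging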
assay_metric: switch fluorescence ratio
Write the number on its own, no unit after it.

Illustrative cases are given below, each with its answer.
| residues | switch fluorescence ratio |
| --- | --- |
| AGCTGATTTT | 0.982 |
| AAAGAAAGTC | 1.04 |
| TTAAGGCACG | 0.999 |
| AGGTTAGGG | 1 |

// switch fluorescence ratio lookup, sequence = ACATAGCTGG , result: 1.01

// switch fluorescence ratio lookup, sequence = TGGGAGAAAA , result: 1.01

// switch fluorescence ratio lookup, sequence = TTTGGAGTGC , result: 1

// switch fluorescence ratio lookup, sequence = CCCCTTGGGG , result: 1.04

Each recorded value in this set is attributed to the supplement of paper PMC10126150.
